- System: Plasmodium falciparum
- method: In vitro antimalarial activity against Plasmodium falciparum.
- Format: functional, organism-based
pIC50: −log10 of the molar value.
Response key: MET means pIC50 >= 7; NOT MET means pIC50 < 7.

> print(dat)
                                    compound    group
 1  C[C@@H]1CC[C@H]2[C@@H](C)C(=O)O[C@@H]3O[C@@]4(C)CC[C@@H]1[C@]32OO4 [ARTEMISININ]      MET
 2  COc1ccc(C2(OC)C=CC3(CCCCC3)OO2)cc1 (configuration not stated)  NOT MET
 3  COC1(c2ccc(Cl)cc2)C=CC2(CCCCCC2)OO1 (configuration not stated)      MET
 4  COc1ccc(C2(OC)C=CC3(CCCCCC3)OO2)cc1 (configuration not stated)  NOT MET
 5  COC1(c2ccccc2)C=CC(C)(C)OO1 (configuration not stated)  NOT MET
 6  COC1(c2ccc(S(C)(=O)=O)cc2)C=CC2(CCCCCC2)OO1 (configuration not stated)      MET
 7  COC1(c2ccccc2)C=CC2(CCCC2)OO1 (configuration not stated)  NOT MET
 8  CC1(C)C=CC(O)(c2ccccc2)OO1 (configuration not stated)  NOT MET
 9  COC1(c2ccccc2)C=CC2(CCCCC2)OO1 (configuration not stated)  NOT MET
10  CC(C)OC1(c2ccc(Cl)cc2)C=CC2(CCCCCC2)OO1 (configuration not stated)  NOT MET
11  CCc1ccc(C2(OC)C=CC3(CCCCCC3)OO2)cc1 (configuration not stated)  NOT MET
12  COC1(c2ccc([N+](=O)[O-])cc2)C=CC2(CCCCC2)OO1 (configuration not stated)      MET
13  COC1(c2ccc(S(C)(=O)=O)cc2)C=CC2(CCCCC2)OO1 (configuration not stated)      MET
14  COC1(c2ccccc2)C=CC2(CCCCCC2)OO1 (configuration not stated)  NOT MET
15  COC1(c2ccc(F)cc2)C=CC2(CCCCC2)OO1 (configuration not stated)  NOT MET
